// reported viability at 28.5 h, 10 µM for each item listed
# assay: in vitro
# measurementContext: human, hela cells, % viability
Use % as the unit, but write only the number.

Below, each entry is followed by its recorded viability at 28.5 h, 10 µM result.
COc1cc(-c2ccc(NCCn3cc[nH]c3=O)nc2)cc(OC)c1OC [CBK036907] : 106
CC(C)(C)C(=O)NC(NC(=S)Nc1sc2c(c1C(N)=O)CCCC2)C(Cl)(Cl)Cl (centres unmarked) [CBK261052] : 94.7
CCc1ccccc1OCC(=O)Nc1ccc([N+](=O)[O-])cc1OC [CBK265665] : 97.1
CCc1nnc(NCC2CCCCC2)s1 [CBK075044] : 88.1
Oc1cccc(/C=N/n2c(S)nnc2-c2ccncc2)c1 [CBK265300] : 109

Using the record for CCN(CC)C(=O)C1CCCN(C(=O)NCc2cc(OC)c(OC)c(OC)c2)C1 (centres unmarked) [CBK156130] , report its viability at 28.5 h, 10 µM.
86.8

Using the record for O=C(O)CCS(=O)(=O)c1cccc2cccnc12 [CBK131911] , report its viability at 28.5 h, 10 µM.
102

Using the record for O=C(Nc1cccc2nsnc12)c1cc(Cl)ccc1NS(=O)(=O)c1cccc2nsnc12 [CBK261129] , report its viability at 28.5 h, 10 µM.
80.9

Using the record for COc1ccc(N2CCN(/C(=N\S(=O)(=O)c3ccc(C)cc3)Nc3nc(C)cc(C)n3)CC2)cc1 [CBK266564] , report its viability at 28.5 h, 10 µM.
99.9

Using the record for CN(C)c1ccc(C(=O)N2CCC(c3cc4ncccc4[nH]3)CC2)cc1 [CBK284459] , report its viability at 28.5 h, 10 µM.
93.3

###

// reported viability at 28.5 h, 10 µM for each item listed
# assay: in vitro
# measurementContext: human, hela cells, % viability
Use % as the unit, but write only the number.

CN(C)c1ccc(-c2nccnc2NS(=O)(=O)c2ccccc2C(F)(F)F)cc1 : 92.8
O=C(Nc1cccc(O)c1)c1ccc2c(c1)C(=O)N(Cc1ccco1)C2=O : 95.6

Okay, next one:
Using the record for O=C([C@H]1C[C@@H](O)[C@H](O)[C@@H]2N=C(Nc3ccc4c(c3)OCO4)S[C@@H]21)N1CCCCC1 , report its viability at 28.5 h, 10 µM.
108

###

# assay: in vitro
# measurementContext: human, hela cells, % viability
// reported viability at 28.5 h, 10 µM for each item listed
Use % as the unit, but write only the number.

O=C(O)COc1ccc(/C=C/c2nc3n(n2)C=COc2ccccc2-3)cc1 : 80.2
Cc1cc(N2C(=O)c3oc4ccccc4c(=O)c3C2c2ccncc2)no1 (stereo not shown) : 103
CCOC(=O)N1CCC(NC(=O)N(C)C2CCN(C)C2)CC1 (stereo not shown) : 102
CCOc1cc2c(cc1NS(=O)(=O)c1cc(C(=O)O)ccc1C)OC(C)C2 (stereo not shown) : 101
COc1cccc(/C=C(/C#N)c2ccc(Cl)cc2)c1OCc1cccc(C(=O)O)c1 : 97.2
Cc1nc(C)n(CC2CCCN(Cc3cc(C#N)cs3)C2)n1 (stereo not shown) : 92
O=c1ccn([C@@H]2O[C@H](CO)[C@H](O)C2O)c(=S)[nH]1 (stereo partly shown) : 91.8
C=CCn1c(S)nnc1-c1ccc(Br)cc1 : 77.3

Using the record for c1ccc(CCCN2CCN(Cc3ccccc3)CC2)cc1 , report its viability at 28.5 h, 10 µM.
90.1

Using the record for CN(Cc1ccc(-c2ccc(S(C)(=O)=O)cc2)nc1)C1CCN(C(=O)CC(F)(F)F)CC1 [CBK164098T] , report its viability at 28.5 h, 10 µM.
99.3

###

# assay: in vitro
# measurementContext: human, hela cells, % viability
Lab note: anything with viability at 28.5 h, 10 µM below 90% is marked 1; values at 90% or higher are marked -1.

Observe how each entry below is paired with its result.
O=C(O)CCN1CCCCC1 [CBK012168C] : -1
O=C(c1ccc2[nH]nnc2c1)N1CCN(S(=O)(=O)Cc2ccccc2)CC1 : 1
CC1(CNC(=O)c2cc(-c3ccc(F)cc3)no2)COC1 : 1

Regarding NC(=O)C1CCN(C2CC(=O)N(c3cccc([N+](=O)[O-])c3)C2=O)CC1 (stereo not shown) , kindly confirm whether its viability at 28.5 h, 10 µM is beneath 90%.
-1

Regarding CCNC(=O)N1CC2(CCN(CC(N)=O)CC2)c2ccccc21 , kindly confirm whether its viability at 28.5 h, 10 µM is beneath 90%.
-1

Regarding Cn1cc(C(=O)N2CCc3ccccc32)c2ccccc21 , kindly confirm whether its viability at 28.5 h, 10 µM is beneath 90%.
1

Regarding CC(N)C(=O)NC1CCN(c2nc3c(cc2F)c(=O)c(C(=O)O)cn3C23CC(C2)C3)C1 (stereo not shown) , kindly confirm whether its viability at 28.5 h, 10 µM is beneath 90%.
1

Regarding Cc1ccc2c(c1)cc(C(=O)N1CCC(C(=O)NCCc3ccc(Cl)cc3)C1)n2C (stereo not shown) , kindly confirm whether its viability at 28.5 h, 10 µM is beneath 90%.
-1

###

# assay: in vitro
# measurementContext: human, hela cells, % viability
// reported viability at 28.5 h, 10 µM for each item listed

Using the record for CC(c1ccccc1)N1Cc2cccc(C(=O)O)c2C1=O (stereo not drawn) [CBK291252] , report its viability at 28.5 h, 10 µM.
97.6%

Using the record for O=C(NCc1ccco1)c1c(NC(=O)C2CCCO2)sc2c1CCC2 (stereo not drawn) [CBK268180] , report its viability at 28.5 h, 10 µM.
94.4%

Using the record for COCCCn1c(CCC(=O)O)ccc1-c1ccc(Br)cc1 [CBK268015] , report its viability at 28.5 h, 10 µM.
97.6%

###

# assay: in vitro
# measurementContext: human, hela cells, % viability
// reported viability at 28.5 h, 10 µM for each item listed
Use % as the unit, but write only the number.

Below, each entry is followed by its recorded viability at 28.5 h, 10 µM result.
OCCN1CC2(CCN(Cc3cccc4cccnc34)CC2)c2ccccc21 : 95.1
O=[N+]([O-])c1ccccc1S(=O)(=O)NCCSCc1ccc(Cl)c(Cl)c1 : 104

Okay, next one:
Using the record for COc1ccccc1OCc1cc(C)c(C(=O)N2CCN(C)CC2c2ccccc2)o1 (stereo not drawn) , report its viability at 28.5 h, 10 µM.
89.3

###

// reported activity at 1 µM for each item listed
# System: CTL2-GFP (C. trachomatis L2/434/Bu, GFP-expressing)
# Construct: L2/434/Bu, GFP-expressing
# assay: microbe, parasite or virus in culture
# Set-up: Intracellular C. trachomatis growth in HeLa cells, bulk GFP fluorescence relative to DMSO
# measurementContext: Chlamydia trachomatis, HeLa, 28.5 h; bulk GFP, mean of 2; read-out: % of control remaining
Use % as the unit, but write only the number.

Tell me reported activity at 1 µM for N#CCCCN1CCC(Oc2cncc(OCc3ccc(Cl)c(Cl)c3)n2)C1 (centres unmarked) [CBK084436] , tested with CTL2-GFP (C. trachomatis L2/434/Bu, GFP-expressing).
127

Tell me reported activity at 1 µM for COCCCNS(=O)(=O)c1ccc(-n2ncc(Cl)c(Cl)c2=O)cc1 [CBK305039] , tested with CTL2-GFP (C. trachomatis L2/434/Bu, GFP-expressing).
78.8

Tell me reported activity at 1 µM for CCCc1cc(C(=O)N2CCN(c3nccc(OC)n3)CC2)[nH]n1 [CBK304898] , tested with CTL2-GFP (C. trachomatis L2/434/Bu, GFP-expressing).
148

Tell me reported activity at 1 µM for O=C(Nc1nccs1)c1cc(C2CCN(C(=O)CC3CCCCC3)C2)nc2ccccc12 (centres unmarked) [CBK285586] , tested with CTL2-GFP (C. trachomatis L2/434/Bu, GFP-expressing).
134

Tell me reported activity at 1 µM for CC(C)(CN)CN(Cc1ccccc1Br)C(=O)NC(c1ccccc1)c1ccccc1 [CBK002488C] , tested with CTL2-GFP (C. trachomatis L2/434/Bu, GFP-expressing).
150

Tell me reported activity at 1 µM for Cc1c(OCc2cnn(-c3ccccc3)c2)ccc(-c2n[nH]c(C(F)(F)F)c2-c2ccccc2)c1O [CBK264962] , tested with CTL2-GFP (C. trachomatis L2/434/Bu, GFP-expressing).
89.8

Tell me reported activity at 1 µM for O=[N+]([O-])c1ccc2[nH]c3c(c2c1)CCCC3NC1CCN(CCc2ccccc2)CC1 (centres unmarked) [CBK262874] , tested with CTL2-GFP (C. trachomatis L2/434/Bu, GFP-expressing).
58.5

Tell me reported activity at 1 µM for O=C(Nc1ccccc1N1CCCNCC1)c1ccc2ccccc2c1 [CBK038927T] , tested with CTL2-GFP (C. trachomatis L2/434/Bu, GFP-expressing).
94.8

Tell me reported activity at 1 µM for COC(=O)CCc1ccc(-c2cnc(N)c(-c3ccc(O)cc3)n2)cc1 [CBK122809] , tested with CTL2-GFP (C. trachomatis L2/434/Bu, GFP-expressing).
122

Tell me reported activity at 1 µM for COc1cc(NS(=O)(=O)c2ccc(N/C=C3/CCc4ccccc4C3=O)cc2)nc(OC)n1 [CBK263376] , tested with CTL2-GFP (C. trachomatis L2/434/Bu, GFP-expressing).
108

Tell me reported activity at 1 µM for C1=C(CCNCCc2ccccc2)c2ccccc2C12CCCC2 [CBK024723] , tested with CTL2-GFP (C. trachomatis L2/434/Bu, GFP-expressing).
137

Tell me reported activity at 1 µM for OC(COc1ccc(Br)cc1)CN1CCCN(c2nc3ccc(Cl)cc3s2)CC1 (centres unmarked) [CBK074643] , tested with CTL2-GFP (C. trachomatis L2/434/Bu, GFP-expressing).
137

Tell me reported activity at 1 µM for O=C(CSCc1c(F)cccc1Cl)Nc1ccc(S(=O)(=O)N2CCCCC2)cc1 [CBK268034] , tested with CTL2-GFP (C. trachomatis L2/434/Bu, GFP-expressing).
82.4

Tell me reported activity at 1 µM for CC(=O)NC[C@H]1CN(c2ccc3c(c2)CCSC3)C(=O)O1 [CBK018505] , tested with CTL2-GFP (C. trachomatis L2/434/Bu, GFP-expressing).
142
